- protocol_notes: viability loss of HPDE-C7K cells – cell-based, fluorescence, HTS, primary screen (AID 431);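 also: 0% = DMSO solvent wells and 100% = doxorubicin-treated wells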
- protocol_conditions: HPDE-C7K KRASV12 cells, Alamar Blue viability, 48 h; at 10 µM; active compounds read high
Out of some 63,000 compounds screened, about 1,100 (1.7%) were called active. Many of the other results were omitted from the sample, so actives are more common in it than they were. Potency and affinity values are given separately.
recorded_metric: cytotoxicity (%)
Just the number in %, nothing appended.

Completed entries (count: 3):
CCOC(=O)N1CCC(N2CCN(S(=O)(=O)CC)CC2)CC1	3.6
N#Cc1c(NCCCO)nc(-c2ccccc2)c2c1CCCC2	20.2
CCOC(=O)C1CCN(c2ncnc3c2cnn3-c2ccccc2)CC1	2.3

Form field: reported cytotoxicity of `COC(=O)[C@@H](NC(=O)Nc1ccccc1F)C(C)C`
1.9

====

Recorded cytotoxicity values for a group of compounds are listed next.
- protocol_notes: viability loss of HPDE-C7K cells – cell-based, fluorescence, HTS, primary screen (AID 431);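 also: 0% = DMSO solvent wells and 100% = doxorubicin-treated wells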
- protocol_conditions: HPDE-C7K KRASV12 cells, Alamar Blue viability, 48 h; at 10 µM; active compounds read high
In all, about 63,000 compounds went through this assay and about 1,100 (1.7%) were called active. What follows is part of a selection rich in actives, with near analogues and random picks from the rest. Potency and affinity values are given separately.
The answer is to be given in %; state only the numeric part.

CCCNc1nc2c(c(=O)[nH]c(=O)n2C)n1Cc1ccc(F)cc1	8.2
O=C(COc1ccccc1)NCCSc1ccccc1	0
CCCCOc1ncnc2c1[nH]c1ccc(F)cc12	5
CCOc1cc(N2CCOCC2)c(OCC)cc1NC1=NCCCCC1	-3.3
CCOc1ccc(NC(=O)CN2CCN(CC(=O)Nc3ccc4c(c3)OCCO4)CC2)cc1	-5.7

Requested field: cytotoxicity. Item: COc1cccc(N2CCN(c3ncnc4c3[nH]c3ccc(F)cc34)CC2C)c1 (stereo unspecified)
121

Entry `COc1ccc(S(=O)(=O)Cc2ccc(C(=O)NC3CC3)o2)cc1` : reported cytotoxicity = ?
-11.3

====

Listing: cytotoxicity of selected compounds
- protocol_notes: viability loss of HPDE-C7K cells – cell-based, fluorescence, HTS, primary screen (AID 431);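 also: 0% = DMSO solvent wells and 100% = doxorubicin-treated wells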
- protocol_conditions: HPDE-C7K KRASV12 cells, Alamar Blue viability, 48 h; at 10 µM; active compounds read high
The whole screen tested about 63,000 compounds, of which about 1,100 (1.7%) were called active. What follows is part of a selection rich in actives, with near analogues and random picks from the rest. Potency and affinity values are given separately.
Give the number; % is assumed, so skip it.

// below: answered compounds
C(=C\CSc1nnnn1-c1ccccc1)/CSc1nnnn1-c1ccccc1	-12.8
Cc1onc(-c2c(F)cccc2Cl)c1C(=O)NCCc1ccc(S(N)(=O)=O)cc1	-7.2

Param item = CCOC(=O)c1[nH]c2ccc(OC)cc2c1NC(=O)C(C)N1CCSCC1 (stereo not given) ; retrieve measured cytotoxicity.
31.2

What does the data say about its cytotoxicity? Entry: `Cc1ccc(N2CCN(c3ccc(C)cc3)C2c2ccncc2)cc1`
-25.3

Which cytotoxicity value belongs to `COCCNC(=O)CSc1nc(-c2ccc(OC)c(OC)c2)cc(C(F)(F)F)n1` ?
-8.7

Endpoint output: cytotoxicity of `CCOC(=O)c1[nH]c2ccc(F)cc2c1NC(=O)CN1CCN(C/C=C/c2ccccc2)CC1` . Value?
65

Numbers sourced from PubChem BioAssay AID431.
